# experiment.summary: Cell Viability - H-4-II-E (AID 543);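 note: cells exposed to compound for 40 hours; nearly all actives have a fitted effect of over 35% in size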
# assay.setup: H-4-II-E rat hepatoma viability; series mostly up to 92.2 µM
# Excerpt: NIH Chemical Genomics Center [NCGC] NIH Molecular Libraries Screening Centers Network [MLSCN] National Institutes of Environmental Health Sciences [NIEHS] National Toxicology Program [NTP] We have developed a 1536-well cell-based assay for quantitative high throughput screening (qHTS) against a number of cell lines to determine in vitro cytotoxicity of small molecules. This particular assay uses the H-4-II-E cell line which is derived from rat hepatoma. […] 8. Detection; Luminescence; Viewlux plate reader […]
Inconclusive results are not listed. Active and inactive are the calls of the source. Calls come from the whole dose curve; as a rule, active = well fitted cell-killing curve with a large enough effect; inconclusive = small, poorly fitted or top-dose-only effect; inactive = flat fitted curve, though single readings scatter.
In this exercise, the only acceptable responses are class 1 for active, class 0 for inactive

Worked set:
1. Cc1ccc(S(N)(=O)=O)cc1: class 0
2. O=C(O)/C=C/c1ccc(/C=C/C(=O)O)cc1: class 0
3. Nc1cc([N+](=O)[O-])ccc1O: class 0
4. c1ccncc1: class 0
5. CCCCCCc1ccc(-c2ccc(C#N)cc2)cc1: class 0
6. c1ccc2c(c1)ccc1ccccc12: class 0
7. O=C(O)c1cc(N=Nc2ccc([N+](=O)[O-])cc2)ccc1O: class 0
8. CC(/C=C/C=C(C)/C=C/C(=O)O)=C\C=C\C=C(C)\C=C\C=C(C)\C=C\C(=O)O: class 0
9. CC(=O)c1ccc(Cl)c(Cl)c1Cl: class 0
10. Nc1ccccc1O: class 0

Recorded call for Nc1cnn([C@@H]2O[C@H](CO)[C@@H](O)[C@H]2O)c(=O)n1 ?
class 0

Recorded call for O=C(OCC1CO1)C1CCCCC1C(=O)OCC1CO1 (centres undefined) ?
class 1

Recorded call for CC1=C(/C=C/C(C)=C/C=C/C(C)=C/C=O)C(C)(C)CCC1 ?
class 1

Recorded call for Nc1ccc(N)c(Cl)c1 ?
class 0

Recorded call for CCCCC(CC)COP(=O)(OCC(CC)CCCC)OCC(CC)CCCC (centres undefined) ?
class 0

Recorded call for O=CC(=O)c1ccccc1 ?
class 0

Recorded call for CCCCCCCCOc1ccc(C(=O)O)cc1 ?
class 0

Recorded call for Nc1cc(C(=O)O)c(O)c(S(=O)(=O)O)c1 ?
class 0

Recorded call for CCOc1ccc2nc(N)sc2c1 ?
class 0

Recorded call for Cc1ccc2ccc3cccc4ccc1c2c34 ?
class 0

Recorded call for OCC(CO)(CBr)CBr ?
class 0

Recorded call for c1ccc(COCc2ccccc2)cc1 ?
class 0

Recorded call for O=C1OC(=O)c2ccccc21 ?
class 0

Recorded call for c1ccc(SCCSc2ccccc2)cc1 ?
class 0

====

Catalogue of activity change, negative = inhibition readings, one per entry.
# experiment.summary: AP1 Signaling Pathway (AID 357);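 note: ME-180 reporter cells stimulated with EGF at its EC50 level; % is set by controls: 0 for no effect and ±100 for the full control effect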
# assay.setup: ME-180 (cervical carcinoma) AP-1-bla reporter, EGF-induced, beta-lactamase ratio, 5 h; at 7.69 µM (top of the series) unless noted
Results filed as inconclusive are left out. The source made the active and inactive calls. Calls come from the whole dose curve; as a rule, active = well fitted curve in either direction with a large enough effect (not every such curve was filed as active); inconclusive = small, poorly fitted or top-dose-only effect, or another doubt; inactive = flat fitted curve, though single readings scatter.

Some solved entries appear below for comparison.
1) COCCn1c(=O)c(-c2ccc(OC)cc2)nc2cnc(Oc3ccccc3)nc21: -9.38% (inactive)
2) O=S(=O)(O)c1ccc(N=Nc2ccccc2)cc1: -9.23% (inactive)
3) COc1cc([C@H](O)C(=O)O)ccc1O: 5.25% [at 38 µM] (inactive)
4) CCNC(=O)[C@@H]1O[C@@H](n2cnc3c(NCc4ccccc4)ncnc32)[C@@H](O)[C@H]1O: -7.35% [at 38 µM] (inactive)
5) N[C@@H](Cc1cccc([N+](=O)[O-])c1)C(=O)O: -0.119% (inactive)
6) CC(=O)Nc1ccc(-c2cc(C(=O)O)c3cc4ccccc4cc3n2)cc1: 7.67% (inactive)
7) Cc1ccc(S(=O)(=O)Oc2cc(S(=O)(=O)O)cc3cc(S(=O)(=O)O)cc(N)c23)cc1: 8.2% (inactive)
8) O=C(O)CC(CC(=O)O)n1cccc1: 5.34% (inactive)

So, O=C(O)[C@@H](Cc1c[nH]c2ccccc12)C(=O)NO ? Its activity change, negative = inhibition was -4.03% (inactive)
